Molecular target: Yer184c (UniProt P39961)
Sequence: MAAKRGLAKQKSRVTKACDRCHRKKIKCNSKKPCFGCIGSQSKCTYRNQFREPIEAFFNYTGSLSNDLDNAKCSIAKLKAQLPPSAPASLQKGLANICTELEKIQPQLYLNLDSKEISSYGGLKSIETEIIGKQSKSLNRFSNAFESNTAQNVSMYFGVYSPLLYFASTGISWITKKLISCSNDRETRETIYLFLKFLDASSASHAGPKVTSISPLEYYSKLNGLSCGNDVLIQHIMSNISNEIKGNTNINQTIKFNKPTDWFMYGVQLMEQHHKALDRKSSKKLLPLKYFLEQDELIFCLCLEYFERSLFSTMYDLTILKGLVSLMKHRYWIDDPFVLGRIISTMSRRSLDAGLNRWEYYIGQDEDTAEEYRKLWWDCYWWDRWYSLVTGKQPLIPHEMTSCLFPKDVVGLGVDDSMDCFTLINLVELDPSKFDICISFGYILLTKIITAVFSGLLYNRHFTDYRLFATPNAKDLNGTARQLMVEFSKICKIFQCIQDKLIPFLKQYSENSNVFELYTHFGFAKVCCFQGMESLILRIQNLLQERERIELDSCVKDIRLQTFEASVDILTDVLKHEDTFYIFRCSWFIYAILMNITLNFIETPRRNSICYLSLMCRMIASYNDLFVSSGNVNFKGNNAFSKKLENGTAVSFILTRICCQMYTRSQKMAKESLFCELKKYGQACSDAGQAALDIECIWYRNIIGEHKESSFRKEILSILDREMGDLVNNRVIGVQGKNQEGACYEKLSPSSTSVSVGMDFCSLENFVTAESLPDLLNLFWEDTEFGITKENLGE
Assay: PBM E-score (8-mer binding enrichment) (E-score (-0.5 to 0.5)); higher = stronger / more preferred TF binding
Details: protein concentration: 100 nM; construct: GST-full length
Over roughly 33,000 sequences, “E-score (-0.5 to 0.5)” has its median near -0.016; the highest 2% begin near 0.3. Many of the other results were omitted from the sample, so the highest values are more common in it than they were.
Is PBM E-score at least 0.2? Then Criterion met. If not, Criterion not met.

>  <Sequence>
ATCGGAAG

>  <Label value>
Criterion met

$$$$
>  <Sequence>
CTAAAGTC

>  <Label value>
Criterion not met

$$$$
>  <Sequence>
ACGGCTTA

>  <Label value>
Criterion not met

$$$$
>  <Sequence>
CGGATCAC

>  <Label value>
Criterion met

$$$$
>  <Sequence>
CCGGCTGC

>  <Label value>
Criterion met

$$$$

Asked: Does PBM E-score meet or surpass 0.2 for `GTCGGAGA` ?
Given back: Criterion not met

Asked: Record `ACGGCTGC` ; criterion: PBM E-score no lower than 0.2. Met?
Given back: Criterion not met

Asked: Please tell me: is the sequence `CGGCCGTA` at or over 0.2 in terms of PBM E-score?
Given back: Criterion met

Asked: # check: PBM E-score of `ATCGGAAT` is greater than or equal to 0.2
Given back: Criterion met

Asked: Decide: PBM E-score of `TTAGGAAA` >= 0.2?
Given back: Criterion not met

Asked: I'd appreciate it if you could say whether `CGGCCGCA` has PBM E-score at least equal to 0.2.
Given back: Criterion met

Asked: Kindly determine if PBM E-score recorded for `AAATTTAT` is above or exactly 0.2.
Given back: Criterion met

Asked: Could you tell me if the measured PBM E-score of `GTCGGAAA` reaches 0.2 or more?
Given back: Criterion met

Asked: Could you please find out whether `GCAGTACA` has PBM E-score that meets 0.2 or exceeds it?
Given back: Criterion not met

Asked: Reported PBM E-score reaches at least 0.2 for `TCTATAGA` ?
Given back: Criterion not met

Asked: Decide: PBM E-score of `AGTTGACA` >= 0.2?
Given back: Criterion not met

Asked: Decide: is the reported value of PBM E-score for `CTGGCTGC` equal to or greater than 0.2?
Given back: Criterion not met

Asked: Given the entry `ACGGCTTC` , answer whether its PBM E-score meets or surpasses 0.2.
Given back: Criterion not met

Asked: Reported PBM E-score reaches at least 0.2 for `ACTAAGAT` ?
Given back: Criterion not met

Asked: Exam item: decide whether the reported PBM E-score for `CGGGCTTC` is at least 0.2.
Given back: Criterion not met
